# protocol-details: Caspofungin pharmacokinetics after single and multiple IV infusions
# Format: in vivo, cats
# conditions-used: plasma, iv, 1 mg/kg
observable: Tmax (h)

CC[C@H](C)C[C@H](C)CCCCCCCCC(=O)N[C@H]1C[C@@H](O)[C@@H](NCCN)NC(=O)[C@@H]2[C@@H](O)CCN2C(=O)[C@H]([C@H](O)CCN)NC(=O)[C@H]([C@H](O)[C@@H](O)c2ccc(O)cc2)NC(=O)[C@@H]2C[C@@H](O)CN2C(=O)[C@H]([C@@H](C)O)NC1=O [caspofungin]: 1.7

---

# protocol-details: Caspofungin pharmacokinetics after single and multiple IV infusions
# Format: in vivo, cats
# conditions-used: plasma, iv, 1 mg/kg, clearance (CLss), multiple dosing
observable: clearance (mL/h/kg)

CC[C@H](C)C[C@H](C)CCCCCCCCC(=O)N[C@H]1C[C@@H](O)[C@@H](NCCN)NC(=O)[C@@H]2[C@@H](O)CCN2C(=O)[C@H]([C@H](O)CCN)NC(=O)[C@H]([C@H](O)[C@@H](O)c2ccc(O)cc2)NC(=O)[C@@H]2C[C@@H](O)CN2C(=O)[C@H]([C@@H](C)O)NC1=O: 3.16
